System: HEK293T cells carrying the ATF4 luciferase reporter
Assay: ATF4-Luc assay (in vitro model of VWMD)
Assay type: cell-based
Conditions: Homo sapiens, HEK-293T, 1 μg/mL tunicamycin, 7 hours, One Glo luminescence
Measured Property: EC50

Example compounds with recorded EC50:
[[record]]
compound = "O=C(COc1ccc(Cl)c(F)c1)NC12CCC(c3nc(COc4ccc(C(F)(F)F)nc4)no3)(CC1)C(O)C2 (stereo not shown)"
observed_result = "250 to 1000 nM"

[[record]]
compound = "CC(C)Oc1ccc(OCc2nnc(C34CC(NC(=O)COc5ccc(Cl)c(F)c5)(C3)C4)o2)cn1"
observed_result = "1000 to 2000 nM"

[[record]]
compound = "Cc1ccc(Oc2nnc(C34CC(NC(=O)COc5ccc(Cl)c(F)c5)(C3)C4)o2)cc1"
observed_result = "50 to 250 nM"

[[record]]
compound = "O=C(COc1ccc(Cl)c(F)c1)NC12CC(c3nnc(Oc4ccc(Cl)cc4)o3)(C1)C2"
observed_result = "< 50 nM"

[[record]]
compound = "Cc1ccc(OCC(=O)NC23CC(c4nc(COc5ccc(Cl)cc5)no4)(C2)C3)cc1"
observed_result = "50 to 250 nM"

[[record]]
compound = "O=C(COc1ccc(Cl)c(F)c1)NC12CC(c3nnc(Oc4ccc(C5CC5)nc4)o3)(C1)C2"
observed_result = "50 to 250 nM"


Switching to the query record.
Challenge: Name the recorded EC50 of the item `Cc1cncc(OCc2nnc(C34CC(NC(=O)COc5ccc(Cl)c(F)c5)(C3)C4)o2)c1` in your answer.
Response given: 250 to 1000 nM

---

Test system: HEK293T cells carrying the ATF4 luciferase reporter
Experiment: ATF4-Luc assay (in vitro model of VWMD)
Assay type: cell-based
Conditions: Homo sapiens, HEK-293T, 1 μg/mL tunicamycin, 7 hours, One Glo luminescence
Measured Property: EC50

Example compounds with recorded EC50:
[[record]]
smiles_input = "O=C(COc1ccc(Cl)cc1F)NC12CC(c3nc(COc4ccc(Cl)cc4)no3)(C1)C2"
assayed_target = "HEK293T cells carrying the ATF4 luciferase reporter"
observed_result = "0.05 to 0.25 µM"

[[record]]
smiles_input = "O=C(COc1ccc(Cl)c(Cl)c1)NC12CC(c3nnc(COc4ccc(Cl)cc4)o3)(C1)C2"
assayed_target = "HEK293T cells carrying the ATF4 luciferase reporter"
observed_result = "< 0.05 µM"


Challenge: Name the recorded EC50 of the item `COc1cccc(Oc2nnc(C34CC(NC(=O)COc5ccc(Cl)c(F)c5)(C3)C4)o2)c1` in your answer.
Response given: 0.05 to 0.25 µM

Challenge: Name the recorded EC50 of the item `COc1ccc(OCc2nnc(C34CC(NC(=O)COc5ccc(Cl)c(F)c5)(C3)C4)o2)cn1` in your answer.
Response given: < 0.05 µM

---

System: HEK293T cells carrying the ATF4 luciferase reporter
Assay: ATF4-Luc assay (in vitro model of VWMD)
Format: cell-based
Details: Homo sapiens, HEK-293T, 1 μg/mL tunicamycin, 7 hours, One Glo luminescence
pEC50: −log10 of the molar value.
The following compounds are listed with their measured pEC50 values.

Example compounds with recorded pEC50:
[[record]]
smiles_input = "O=C(COc1ccc(Cl)c(F)c1)NC12CC(c3nnc(Oc4ccc(C(F)(F)F)cc4)o3)(C1)C2"
measured_property = "pEC50"
observed_result = "> 7.30"

[[record]]
smiles_input = "O=C(COc1ccc(Cl)c(F)c1)NC12CC(c3nnc(Oc4ccc(C(F)(F)F)nc4)o3)(C1)C2"
measured_property = "pEC50"
observed_result = "6.60 to 7.30"

[[record]]
smiles_input = "O=C(COc1ccc(Cl)cc1)NC12CC(c3nc(COc4ccc(Cl)c(Cl)c4)no3)(C1)C2"
measured_property = "pEC50"
observed_result = "> 7.30"

[[record]]
smiles_input = "O=C(COc1ccc(Cl)c(F)c1)NC12CC(c3nnc(Oc4ccccc4Cl)o3)(C1)C2"
measured_property = "pEC50"
observed_result = "6.00 to 6.60"

[[record]]
smiles_input = "O=C(COc1ccc(Cl)c(F)c1)NC12CC(c3nnc(COc4ccc(Cl)c(F)c4)o3)(C1)C2"
measured_property = "pEC50"
observed_result = "> 7.30"


Challenge: Name the recorded pEC50 of the item `O=C(COc1ccc(Cl)c(F)c1)NC12CC(c3nnc(COc4ccc(C(F)(F)F)nc4)o3)(C1)C2` in your answer.
Response given: 6.60 to 7.30

Challenge: Name the recorded pEC50 of the item `O=C(COc1ccc(Cl)c(F)c1)NC12CC(c3nc(COc4ccc(Cl)c(F)c4)c[nH]3)(C1)C2` in your answer.
Response given: > 7.30
